Molecular target: GPNMB-V5His (recombinant human GPNMB extracellular domain with C-terminal V5-His tag) (human) (UniProt Q14956)
Assay: ELISA, coated GPNMB, Ab 12.3 ng/mL
Avg OD values, listed per item
Kindly provide the numeric value in OD only, without the unit symbol.

Here are 3 binders together with their reported answers.
Binder | Readout Unit | Quantitative Readout
2-7 (hybridoma of Table 6) (antibody, V domains shown) VH: QVQLEQSGGGVVQPGRSLRLSCAASGFTFNNYGMHWVRQAPGKGLEWVAVIWYDGSNKYYADSVKGRFTISRDNSKNTLYLQMNSLRAEDTAVYYCAKDEEYYYVSGLDYWGQGTLVTVSS VL: LTQSPSSLSASVRDRVTITCRASQDISNYLAWYQQKPGKVPNLLIYAASTLQSGVPSRFSGSGSGTDFTLTISSLQPEDVATYYCQKYNSAPLTFGGGTKVEIKR | OD | 0.156
2-16 (hybridoma of Table 6) (antibody, V domains shown) VH: QVQLVESGGGLVKPGGSLRLSCAASGFTFSDYYMTWIRQAPGKGLEWVSYISISGSITHYADSVKGRFTMSRDNAKNSLYLQMNSLRAEDTAVYYCARDGAAAGTDAFDIWGHGTKVTVSS VL: EIVMTQSPATLSVSPGDRATLSCRASQNVSSNLAWYQQKPGQAPRLLIFGASTRATGIPARFSGSGSGTEFTLTISSLQSEDFAVYYCQQYHYWPTFGPGTKVDIKR | OD | 0.011
2-17 (hybridoma of Table 6) (antibody, V domains shown) VH: QLVQSGAEVKKPGASVKVSCKASGYTFTGFYMHWVRQTPGQGLEWMGWINPNSGGTYYVQKFQGRVTMTRDTSISTVYMELSRLRSDDTAVYYCARDGYSSGEDWFDPWGQGTLVTVSS VL: DIVMTQTPLSLSVTPGQPASISCKSSQSLLHSGGKTYLYWYLQRPGQPPQLLIYEVSNRFSGVPDRFSGSGSGTDFTLKISRVEAEDVGVYYCMQSIHLPLTFGGGTKVEIKR | OD | 0.011

Shifting focus to the binder that follows.
q: Quick one: Avg OD for 1.7.3 (antibody, V domains shown) VH: QVQLQESGPGLVKPSQTLSLTCTVSGGSISSANYYWTWIRQHPGKGLEWIGYIYYSGSTYCNPSLKSRVIISVDTSKNQFSLKLSSVTAADTAVYYCARGYNWNYFDYWGQGTLVTVSS VL: DIVMTQSPATLSVSPGERATLSCRASQSVSSNLAWYQERPGQAPRLLIYGASTRATGIPARFSGSGSGTEFTLTISSLQSEDFAVYYCQQYNKWPPWTFGQGTKVEIER ?
a: 0.094
